Literature survey of IC50 (system: Non-receptor tyrosine-protein kinase TYK2 (Homo sapiens, UniProt P29597)).

The recorded IC50 with Non-receptor tyrosine-protein kinase TYK2 (Homo sapiens, UniProt P29597) for `O=C1NCCCCOCc2cc(ccc2N2CCOCC2)Nc2nccc(n2)-c2ccc1cc2I` was 1000 to 10000 nM

The recorded IC50 with Non-receptor tyrosine-protein kinase TYK2 (Homo sapiens, UniProt P29597) for `CCN1CC(CC#N)(n2cc(-c3nc(-c4cnn(C)c4)cc4nccn34)cn2)C1` was 10 to 100 nM

Switching to the query record.
The recorded IC50 with Non-receptor tyrosine-protein kinase TYK2 (Homo sapiens, UniProt P29597) for CCC(CC)n1cc(-c2nc(-c3cnn([C@@H](C)[C@@H](O)CO)c3)cn3nccc23)cn1 (single isomer, unassigned) was 10 to 100 nM

* * *

Literature survey of IC50 (system: UniProt:P29597).
recorded.metric: IC50 (nM)

I. Clc1cnc2nc1NCc1cc(ccc1-c1ccccc1)OCCCc1cccc(c1)N2
II. NC(=O)c1cc(-c2ncnc3[nH]ccc23)cn1-c1cc(C(F)(F)F)ccc1Cl
III. CCc1cc(O)c(F)cc1-c1cc2[nH]ncc2c(N(C)Cc2cc(C)ccc2N(CC)S(C)(=O)=O)n1
IV. CN(c1ccc(O)cc1CNc1nc(-c2cc(F)c(O)cc2CC(F)(F)F)cc2[nH]nc(C(N)=O)c12)S(C)(=O)=O
Please list these in order of increasing IC50. Thank you! Use the labels to give the requested order.
II, IV, I, III

* * *

Literature survey of IC50 (system: Non-receptor tyrosine-protein kinase TYK2 (Homo sapiens)).

Example entries begin here.
The recorded IC50 with Non-receptor tyrosine-protein kinase TYK2 (Homo sapiens) for `Nc1cc2ccc1-c1ccnc(n1)Nc1ccc(OC3CC(F)(F)C3)c(c1)COCCCCNC2=O` was 1 to 10 µM

The recorded IC50 with Non-receptor tyrosine-protein kinase TYK2 (Homo sapiens) for `N#Cc1cccc(S(=O)(=O)N[C@H]2C[C@@H](Nc3c(-c4nccs4)cnc4[nH]ccc34)C2)c1` was ≤ 0.01 µM

The recorded IC50 with Non-receptor tyrosine-protein kinase TYK2 (Homo sapiens) for `CC(=O)OCC(=O)Nc1cccc(-c2cnc3ccccc3n2)c1` was > 10 µM

The recorded IC50 with Non-receptor tyrosine-protein kinase TYK2 (Homo sapiens) for `CN1CCN(CC(=O)Nc2cccc(-c3cnc4ccccc4n3)c2)CC1` was > 50 µM

The recorded IC50 with Non-receptor tyrosine-protein kinase TYK2 (Homo sapiens) for `CN(c1ccccc1CNc1nc(-c2cc(F)c(O)cc2CC(F)(F)F)cc2[nH]nc(-n3cccn3)c12)S(C)(=O)=O` was 0.356 µM

Switching to the query record.
The recorded IC50 with Non-receptor tyrosine-protein kinase TYK2 (Homo sapiens) for `O=C1NCCCCOCc2cc(ccc2N2CCOCC2)Nc2ncc(Cl)c(n2)-c2ccc1cc2F` was 0.101 to 1 µM

* * *

pIC50: −log10 of the molar value.
Literature survey of pIC50 (system: Non-receptor tyrosine-protein kinase TYK2 (Homo sapiens, UniProt P29597)).

Example entries begin here.
The recorded pIC50 with Non-receptor tyrosine-protein kinase TYK2 (Homo sapiens, UniProt P29597) for CCC(CC(F)(F)F)n1cc(-c2nc(-c3cnn(C(CO)CO)c3)cn3nccc23)cn1 (single isomer, unassigned) was 6.00 to 7.00

The recorded pIC50 with Non-receptor tyrosine-protein kinase TYK2 (Homo sapiens, UniProt P29597) for CCn1cc(-c2cc3nccn3c(-c3cnn(C(CC#N)C4CC4)c3)n2)cn1 (stereo not shown) was > 8.00

The recorded pIC50 with Non-receptor tyrosine-protein kinase TYK2 (Homo sapiens, UniProt P29597) for `COCCO[C@@H]1CNc2cc(Nc3ncc(C(N)=O)c(NC4CC4)n3)ccc2OC1` was > 8.00

The recorded pIC50 with Non-receptor tyrosine-protein kinase TYK2 (Homo sapiens, UniProt P29597) for `O=C1NCCCCOCc2cc(ccc2N2CCOCC2)Nc2nccc(n2)-c2ccc1cc2C(F)(F)F` was < 5.00

The recorded pIC50 with Non-receptor tyrosine-protein kinase TYK2 (Homo sapiens, UniProt P29597) for `CC(C)S(=O)(=O)N1CC(CCF)(n2cc(-c3nc(-c4cnn(C)c4)cc4nccn34)cn2)C1` was 6.00 to 7.00

More entries:
The recorded pIC50 with Non-receptor tyrosine-protein kinase TYK2 (Homo sapiens, UniProt P29597) for `Cc1cc(Nc2ncc(C)c(N3CC(CC#N)(NC(=O)Cc4ccccc4F)C3)n2)sn1` was > 7.70

The recorded pIC50 with Non-receptor tyrosine-protein kinase TYK2 (Homo sapiens, UniProt P29597) for `CC[C@@H](CCF)n1cc(-c2nc(-c3cnn(C)c3)cc3nccn23)cn1` was 7.00 to 8.00

The recorded pIC50 with Non-receptor tyrosine-protein kinase TYK2 (Homo sapiens, UniProt P29597) for NC(=O)c1cnc(Nc2ccc3c(c2)NCC(O)CO3)nc1NCC(F)(F)F (stereo not shown) was > 8.00

The recorded pIC50 with Non-receptor tyrosine-protein kinase TYK2 (Homo sapiens, UniProt P29597) for C[C@@H]1C[C@H](Nc2c(-c3ncco3)cnc3[nH]ccc23)CN(C(=O)CC#N)C1 (single isomer, unassigned) was 6.00 to 7.00

The recorded pIC50 with Non-receptor tyrosine-protein kinase TYK2 (Homo sapiens, UniProt P29597) for CCc1cc(O)ccc1-c1cc2[nH]ncc2c(N2CCC(S(=O)(=O)N(C)C)C2)n1 (racemic) was 6.18

The recorded pIC50 with Non-receptor tyrosine-protein kinase TYK2 (Homo sapiens, UniProt P29597) for `CN(c1ncnc2[nH]ccc12)C1CC2(C1)CN(C(=O)c1ccc(C#N)cc1F)C2` was ≤ 5.00

The recorded pIC50 with Non-receptor tyrosine-protein kinase TYK2 (Homo sapiens, UniProt P29597) for CCC(C1CC(F)(F)C1)n1cc(-c2nc(-c3cnn(C[C@@H](O)CO)c3)cn3nccc23)cn1 (stereo partly shown) was 7.00 to 8.00

The recorded pIC50 with Non-receptor tyrosine-protein kinase TYK2 (Homo sapiens, UniProt P29597) for `CCc1ccc(Cl)cc1-c1[nH]c(-c2cc(NC)ncn2)cc1C(=O)NC` was 8.00

The recorded pIC50 with Non-receptor tyrosine-protein kinase TYK2 (Homo sapiens, UniProt P29597) for `COCCC1(n2cc(-c3nc(-c4cnn(C)c4)cc4nccn34)cn2)CN(S(=O)(=O)C(F)(F)F)C1` was 6.00 to 7.00

The recorded pIC50 with Non-receptor tyrosine-protein kinase TYK2 (Homo sapiens, UniProt P29597) for `Nc1cc2ccc1-c1ccnc(n1)Nc1ccc(OCc3ccccc3F)c(c1)COCCCCNC2=O` was < 5.00

The recorded pIC50 with Non-receptor tyrosine-protein kinase TYK2 (Homo sapiens, UniProt P29597) for `CCC(CC)n1cc(-c2nc(-c3cnn([C@H]4C[C@H](C(N)=O)C4)c3)cn3nccc23)cn1` was 7.00 to 8.00

* * *

Literature survey of IC50 (system: UniProt:P29597).

Example entries begin here.
The recorded IC50 with UniProt:P29597 for `NC(=O)c1cnc(Nc2ccc3c(c2)NCCCO3)nc1NC1CC1` was < 10 nM

The recorded IC50 with UniProt:P29597 for `Cc1cc(Nc2ncc(C)c(N3CC(CC#N)(N4CCC5(CC4)COC5)C3)n2)sn1` was < 10 nM

The recorded IC50 with UniProt:P29597 for `CCC(CC)n1cc(-c2nc(-c3cnn([C@H]4C[C@H](CO)C4)c3)cn3nccc23)cn1` was 10 to 100 nM

The recorded IC50 with UniProt:P29597 for COCCC(C1CC1(F)F)n1cc(-c2nc(-c3cnn(C)c3)cc3nccn23)cn1 (centres unmarked) was 100 to 1000 nM

More entries:
The recorded IC50 with UniProt:P29597 for `CCc1ccc(Cl)cc1-n1cc(-c2cc(N)ncn2)cc1C(N)=O` was 32 nM

The recorded IC50 with UniProt:P29597 for `CNc1nn([C@]2(CC#N)C[C@@H](C#N)C2)cc1-c1nc(-c2cnn(C)c2)cn2nccc12` was 0.33 nM

The recorded IC50 with UniProt:P29597 for `COC(=O)[C@H]1C[C@H](NC(=O)c2nn(C)c3c2CN(c2ncnc4[nH]ccc24)CC3)C1` was > 2000 nM

* * *

Literature survey of IC50 (system: UniProtKB P29597).

Record `COc1cc2ccc1-c1ccnc(n1)Nc1ccc(N3CCOCC3)c(c1)COCCCCNC2=O` . Reported IC50: 1000 to 10000 nM

Record `CC(C)(O)Cc1nc2cc(Nc3ncc(Cl)c(NC4CCN(c5ccc(C#N)cn5)CC4)n3)ccn2n1` . Reported IC50: 5 nM

Record `COCCO[C@H]1CNc2cc(Nc3ncc(C(N)=O)c(NC4CC4)n3)ccc2OC1` . Reported IC50: < 10 nM

Switching to the query record.
Record `COc1ccc(NC(=O)Nc2cccc(-c3cnc4ccccc4n3)c2)cc1` . Reported IC50: > 50000 nM
